These data points were gathered from ChEMBL document CHEMBL4190239.

molecular target: Peroxisome proliferator-activated receptor gamma (Homo sapiens); assay: Agonist activity at GAL4-fused PPARgamma LBD (unknown origin) expressed in HEK293 cells assessed as receptor transactivation after 18 hrs by dual luciferase reporter gene assay; format: cell-based; details: read-out: EC50
Sequence (P37231 whole entry, the tested form may be a part): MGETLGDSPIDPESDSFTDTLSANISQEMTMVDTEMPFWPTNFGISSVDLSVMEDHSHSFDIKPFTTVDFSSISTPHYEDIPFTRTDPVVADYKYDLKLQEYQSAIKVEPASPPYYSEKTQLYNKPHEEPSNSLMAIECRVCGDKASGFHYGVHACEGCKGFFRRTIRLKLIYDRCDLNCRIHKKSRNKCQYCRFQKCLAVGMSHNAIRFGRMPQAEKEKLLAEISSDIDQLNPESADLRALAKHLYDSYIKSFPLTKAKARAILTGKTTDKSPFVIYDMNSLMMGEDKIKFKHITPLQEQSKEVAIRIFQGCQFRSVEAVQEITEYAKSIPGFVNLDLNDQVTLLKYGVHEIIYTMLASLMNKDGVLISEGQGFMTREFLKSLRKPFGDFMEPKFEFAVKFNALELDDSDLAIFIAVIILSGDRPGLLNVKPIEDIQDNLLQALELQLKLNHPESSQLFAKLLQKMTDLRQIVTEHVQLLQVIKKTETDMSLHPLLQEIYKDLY
pEC50: −log10 of the molar value.
Catalogue of molecules with associated pEC50
MEASUREMENT LABEL: pEC50

1) CCOC(=O)C(C)(C)Oc1ccc(C(=O)C2Cc3ccccc3OC2=O)cc1 (stereo not given) = 4.40
2) CC(C)(Oc1ccc(C(=O)c2cc3ccccc3oc2=O)cc1)C(=O)O = 5.44
3) CCOC(=O)C(C)(C)Oc1ccc(C(=O)c2cc3ccccc3oc2=O)cc1 = 5.28
4) CCOC(=O)C(C)(C)Oc1ccc(C(=O)c2cc3cc([N+](=O)[O-])ccc3oc2=O)cc1 = 6.04
5) CC(C)(Oc1ccc(C(=O)c2cc3c(ccc4ccccc43)oc2=O)cc1)C(=O)O = 4.25

====

assay: Antioxidant activity assessed as ABTS radical scavenging activity after 30 mins; format: functional
pIC50: −log10 of the molar value.
MEASUREMENT LABEL: pIC50

1. CCOC(=O)C(C)(C)Oc1ccc(C(=O)C2Cc3c(ccc4ccccc34)OC2=O)cc1 (configuration not stated) = 4.82
2. CCOC(=O)C(C)(C)Oc1ccc(C(=O)C2Cc3cc(C)ccc3OC2=O)cc1 (configuration not stated) = 4.99
3. CCOC(=O)C(C)(C)Oc1ccc(C(=O)c2cc3cc(C)ccc3oc2=O)cc1 = 5.07
4. Cc1c(C)c2c(c(C)c1O)CCC(C)(C(=O)O)O2 (configuration not stated) [TROLOX] = 4.60
5. CCOC(=O)C(C)(C)Oc1ccc(C(=O)C2Cc3cc(OC)c(OC)cc3OC2=O)cc1 (configuration not stated) = 4.77
6. CCOC(=O)C(C)(C)Oc1ccc(C(=O)c2cc3cc([N+](=O)[O-])ccc3oc2=O)cc1 = 4.73
7. CCOC(=O)C(C)(C)Oc1ccc(C(=O)C2Cc3ccccc3OC2=O)cc1 (configuration not stated) = 5.03

====

molecular target: Peroxisome proliferator-activated receptor gamma (Homo sapiens); experiment: Agonist activity at GAL4-fused PPARgamma LBD (unknown origin) expressed in HEK293 cells assessed as receptor transactivation at 10 uM after 18 hrs by dual luciferase reporter gene assay; format: cell-based
MEASUREMENT LABEL: fold change (FC)

1) CCOC(=O)C(C)(C)Oc1ccc(C(=O)c2cc3cc(C)ccc3oc2=O)cc1 = 1.01
2) CCOC(=O)C(C)(C)Oc1ccc(C(=O)C2Cc3cc(OC)c(OC)cc3OC2=O)cc1 (centres undefined) = 0.9
3) CCOC(=O)C(C)(C)Oc1ccc(C(=O)c2cc3cc(OC)c(OC)cc3oc2=O)cc1 = 1.01
4) CCOC(=O)C(C)(C)Oc1ccc(C(=O)c2cc3cc(Cl)ccc3oc2=O)cc1 = 0.95
5) CCOC(=O)C(C)(C)Oc1ccc(C(=O)c2cc3c(ccc4ccccc43)oc2=O)cc1 = 0.83
6) CCOC(=O)C(C)(C)Oc1ccc(C(=O)C2Cc3cc(C)ccc3OC2=O)cc1 (centres undefined) = 0.8
7) CCOC(=O)C(C)(C)Oc1ccc(C(=O)c2cc3cc(C(C)(C)C)cc(C(C)(C)C)c3oc2=O)cc1 = 0.81
8) Cc1ccc2oc(=O)c(C(=O)c3ccc(OC(C)(C)C(=O)O)cc3)cc2c1 = 1.04
9) CCOC(=O)C(C)(C)Oc1ccc(C(=O)C2Cc3c(ccc4ccccc34)OC2=O)cc1 (centres undefined) = 1.05
